Can you tell me GI50 for the items I'm about to list?
- Test system: DLD-1
- ASSAY SUMMARY: NCI tumour cell line growth inhibition, 48 h
Active and inactive are the calls of the source. No stated cut-off is given here; in the data, active = GI50 up to about 1.1 µM and inactive = higher.

COc1ccc2cccc(C(=O)c3ccc(C)c4c3CCC4)c2c1
21.5 µM (inactive)
CCOC(=O)C(=O)Nc1ccccc1C(C)C
> 100 µM (inactive)
Nc1ccc(C(=O)NN2C(=O)C(Cl)C2c2ccc(O)cc2)cc1 (stereo unspecified)
18.1 µM (inactive)
C1=C2/CC[C@H](Sc3ccccc3)[C@H]2C2(CCCCC/1)OCCO2
61.4 µM (inactive)
c1c(N2CCOCC2)s[s+]c1N1CCOCC1
> 100 µM (inactive)

Consider the additional compound presented here.
// recorded GI50 for COc1ccc(CCNCc2cccc(OC)c2OC)cc1OC : > 100 µM (inactive)
